Tested on: Staphylococcus aureus
Test: Antibacterial activity against Staphylococcus aureus MTCC 96 at 50 ug/ml by cup-plate method
Type: functional
Settings: read-out: DIZ
PARAMETER_MEASURED: zone of inhibition at 50 µg/mL (mm)

mol_smiles=COc1cc(/C=C2\S/C(=N/c3ccc(Cl)cc3)NC2=O)ccc1O assayed_system="Staphylococcus aureus" value_reported=6
mol_smiles=COc1cc(/C=C2\S/C(=N/c3ccc(F)c(Cl)c3)NC2=O)ccc1O assayed_system="Staphylococcus aureus" value_reported=7
mol_smiles=O=C1N/C(=N\c2ccc(Cl)cc2)S/C1=C\c1cccc([N+](=O)[O-])c1 assayed_system="Staphylococcus aureus" value_reported=8
mol_smiles=O=C1N/C(=N\c2ccc(F)c(Cl)c2)S/C1=C\c1cccc([N+](=O)[O-])c1 assayed_system="Staphylococcus aureus" value_reported=11
mol_smiles=O=C1N/C(=N\c2ccc(Cl)cc2)S/C1=C\c1ccccc1 assayed_system="Staphylococcus aureus" value_reported=5
mol_smiles=COc1cc(/C=C2\S/C(=N/c3cccc(Cl)c3)NC2=O)ccc1O assayed_system="Staphylococcus aureus" value_reported=6
mol_smiles=O=C1N/C(=N\c2ccc(Cl)cc2)S/C1=C\c1ccccc1[N+](=O)[O-] assayed_system="Staphylococcus aureus" value_reported=8
mol_smiles=O=C1N/C(=N\c2ccc(F)c(Cl)c2)S/C1=C\c1ccccc1 assayed_system="Staphylococcus aureus" value_reported=6
mol_smiles=O=C1N/C(=N\c2cccc(Cl)c2)S/C1=C\c1ccccc1[N+](=O)[O-] assayed_system="Staphylococcus aureus" value_reported=8
mol_smiles=O=C1N/C(=N\c2cccc(Cl)c2)S/C1=C\c1cccc([N+](=O)[O-])c1 assayed_system="Staphylococcus aureus" value_reported=8
mol_smiles=O=C1N/C(=N\c2ccc(Cl)cc2)S/C1=C\c1ccc(Cl)cc1 assayed_system="Staphylococcus aureus" value_reported=6
mol_smiles=O=C1N/C(=N\c2ccc(F)c(Cl)c2)S/C1=C\c1ccccc1Cl assayed_system="Staphylococcus aureus" value_reported=10
mol_smiles=O=C1N/C(=N\c2ccc(Cl)cc2)S/C1=C\c1ccc(O)cc1 assayed_system="Staphylococcus aureus" value_reported=6
mol_smiles=O=C1N/C(=N\c2cccc(Cl)c2)S/C1=C\c1ccccc1Cl assayed_system="Staphylococcus aureus" value_reported=7
mol_smiles=O=C1N/C(=N\c2cccc(Cl)c2)S/C1=C\c1ccc(Cl)cc1 assayed_system="Staphylococcus aureus" value_reported=7
mol_smiles=O=C1N/C(=N\c2ccc(F)c(Cl)c2)S/C1=C\c1ccc(O)cc1 assayed_system="Staphylococcus aureus" value_reported=8
mol_smiles=O=C1N/C(=N\c2ccc(F)c(Cl)c2)S/C1=C\c1ccccc1[N+](=O)[O-] assayed_system="Staphylococcus aureus" value_reported=10
mol_smiles=O=C1N/C(=N\c2cccc(Cl)c2)S/C1=C\c1ccc(O)cc1 assayed_system="Staphylococcus aureus" value_reported=8
mol_smiles=O=C1N/C(=N\c2ccc(Cl)cc2)S/C1=C\c1ccccc1Cl assayed_system="Staphylococcus aureus" value_reported=8
mol_smiles=O=C1N/C(=N\c2cccc(Cl)c2)S/C1=C\c1ccccc1 assayed_system="Staphylococcus aureus" value_reported=6
mol_smiles=O=C1N/C(=N\c2ccc(F)c(Cl)c2)S/C1=C\c1ccc(Cl)cc1 assayed_system="Staphylococcus aureus" value_reported=10

###

System: Escherichia coli
Experiment: Antibacterial activity against Escherichia coli MTCC 739 at 300 ug/ml by cup-plate method
Type: functional
Conditions: read-out: DIZ
PARAMETER_MEASURED: zone of inhibition at 300 µg/mL (mm)

mol_smiles=O=C1N/C(=N\c2cccc(Cl)c2)S/C1=C\c1ccc(O)cc1 value_reported=9
mol_smiles=O=C1N/C(=N\c2ccc(F)c(Cl)c2)S/C1=C\c1ccccc1 value_reported=12
mol_smiles=COc1cc(/C=C2\S/C(=N/c3cccc(Cl)c3)NC2=O)ccc1O value_reported=9
mol_smiles=O=C1N/C(=N\c2ccc(Cl)cc2)S/C1=C\c1ccc(O)cc1 value_reported=8
mol_smiles=O=C1N/C(=N\c2ccc(F)c(Cl)c2)S/C1=C\c1cccc([N+](=O)[O-])c1 value_reported=10
mol_smiles=O=C1N/C(=N\c2cccc(Cl)c2)S/C1=C\c1ccccc1[N+](=O)[O-] value_reported=9
mol_smiles=O=C1N/C(=N\c2ccc(F)c(Cl)c2)S/C1=C\c1ccccc1Cl value_reported=10
mol_smiles=O=C1N/C(=N\c2cccc(Cl)c2)S/C1=C\c1ccc(Cl)cc1 value_reported=9
mol_smiles=O=C1N/C(=N\c2ccc(Cl)cc2)S/C1=C\c1cccc([N+](=O)[O-])c1 value_reported=10
mol_smiles=O=C1N/C(=N\c2ccc(F)c(Cl)c2)S/C1=C\c1ccc(Cl)cc1 value_reported=12

###

# zone of inhibition at 100 µg/mL per entry
System: Pseudomonas aeruginosa
Assay: Antibacterial activity against Pseudomonas aeruginosa MTCC 2453 at 100 ug/ml by cup-plate method
Assay type: functional
Settings: read-out: DIZ
PARAMETER_MEASURED: zone of inhibition at 100 µg/mL (mm)

mol_smiles=O=C1N/C(=N\c2ccc(F)c(Cl)c2)S/C1=C\c1ccccc1[N+](=O)[O-] value_reported=9
mol_smiles=O=C(O)c1cn(C2CC2)c2cc(N3CCNCC3)c(F)cc2c1=O value_reported=15
mol_smiles=O=C1N/C(=N\c2cccc(Cl)c2)S/C1=C\c1ccccc1[N+](=O)[O-] value_reported=8
mol_smiles=O=C1N/C(=N\c2ccc(F)c(Cl)c2)S/C1=C\c1ccc(O)cc1 value_reported=9
mol_smiles=COc1cc(/C=C2\S/C(=N/c3ccc(F)c(Cl)c3)NC2=O)ccc1O value_reported=9

###

Test system: Escherichia coli
Assay: Antibacterial activity against Escherichia coli MTCC 739 at 200 ug/ml by cup-plate method
Type: functional
Conditions: read-out: DIZ
PARAMETER_MEASURED: zone of inhibition at 200 µg/mL (mm)

mol_smiles=O=C1N/C(=N\c2ccc(F)c(Cl)c2)S/C1=C\c1cccc([N+](=O)[O-])c1 unit_spec=mm value_reported=9
mol_smiles=O=C1N/C(=N\c2ccc(Cl)cc2)S/C1=C\c1cccc([N+](=O)[O-])c1 unit_spec=mm value_reported=9
mol_smiles=O=C1N/C(=N\c2ccc(F)c(Cl)c2)S/C1=C\c1ccccc1Cl unit_spec=mm value_reported=9
mol_smiles=O=C1N/C(=N\c2ccc(Cl)cc2)S/C1=C\c1ccccc1[N+](=O)[O-] unit_spec=mm value_reported=9
